# subject-of-test: UniProtKB P29274
# Sequence (P29274 whole entry): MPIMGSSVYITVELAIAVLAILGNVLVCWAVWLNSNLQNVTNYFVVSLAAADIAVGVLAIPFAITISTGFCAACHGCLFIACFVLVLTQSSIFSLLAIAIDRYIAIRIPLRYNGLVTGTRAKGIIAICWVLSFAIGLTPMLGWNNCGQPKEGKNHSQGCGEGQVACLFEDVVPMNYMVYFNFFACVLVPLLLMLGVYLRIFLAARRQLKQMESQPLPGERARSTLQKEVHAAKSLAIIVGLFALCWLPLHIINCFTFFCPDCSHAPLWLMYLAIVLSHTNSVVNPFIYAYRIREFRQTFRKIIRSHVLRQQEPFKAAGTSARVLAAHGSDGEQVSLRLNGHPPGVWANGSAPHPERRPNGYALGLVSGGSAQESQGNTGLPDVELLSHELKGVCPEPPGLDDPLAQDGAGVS
# assay-protocol: A2A antagonism in cAMP cell-based assay (LANCE cAMP, HEK293)
# measurement-context: HEK293 cells expressing human A2A receptor
pIC50: −log10 of the molar value.
Threshold rule: pIC50 greater than or equal to 8 is rule met; below that, rule not met.

Please review the following examples before continuing.
{"compound": "C[C@@H]1CC[C@H](c2nc3c4cc(F)cc(F)c4nc(N)n3n2)CN1c1cnn(C(C)(CO)CO)c1 (single isomer, unassigned)", "cat": "rule not met"}
{"compound": "COc1cc2nc(N)n3nc(C4CCC(C)N(c5cnn(CC(C)(C)N)c5)C4)nc3c2cc1F (single isomer, unassigned) [Example 263]", "cat": "rule not met"}
{"compound": "COc1cc2nc(N)n3nc(C4CCC(C)N(c5cnn(CC(C)(O)CO)c5)C4)nc3c2cc1F (single isomer, unassigned) [Example 255]", "cat": "rule met"}
{"compound": "Cc1c(N2CC(C)CC(c3nc4c5cc(F)cc(F)c5nc(N)n4n3)C2)cnn1C(C)C(C)O (single isomer, unassigned) [Example 218]", "cat": "rule not met"}
{"compound": "COc1cc(F)cc2c1nc(N)n1nc(C3CCC(C)N(c4cnn(C(C)(C)C(C)O)c4)C3)nc21 (single isomer, unassigned) [Example 271]", "cat": "rule not met"}

State whether the measured pIC50 reaches 8, counting equality as reaching it, for CCC(C)(O)Cn1cc(N2CCC[C@@H](c3nc4c5cc(F)c(OC)cc5nc(N)n4n3)C2)cn1 (single isomer, unassigned) [Example 184]
rule met

Repeat with CC(O)C(C)n1cc(N2CCC[C@@H](c3nc4c5cc(F)cc(F)c5nc(N)n4n3)C2)cn1 (single isomer, unassigned) [Example 198]
rule met

Repeat with COc1cc(F)cc2c1nc(N)n1nc(C3CC(C)CN(c4cn(C(C)C(C)O)nc4C)C3)nc21 (single isomer, unassigned) [Example 225]
rule met

Repeat with COc1cc2nc(N)n3nc([C@@H]4CCCN(c5cnn(C(C)C(C)O)c5)C4)nc3c2cc1F (single isomer, unassigned) [Example 188]
rule met

Repeat with Cc1nn(C(C)C(C)O)cc1N1CC(C)CC(c2nc3c4cc(F)cc(F)c4nc(N)n3n2)C1 (single isomer, unassigned) [Example 212]
rule not met

Repeat with CC(O)C(C)(C)n1cc(N2CCC[C@@H](c3nc4c5cc(F)cc(F)c5nc(N)n4n3)C2)cn1 (single isomer, unassigned) [Example 247]
rule met

Repeat with COc1cc2nc(N)n3nc(C4CCC(C)N(c5cnn(C(C)(C)C(C)O)c5)C4)nc3c2cc1F (single isomer, unassigned) [Example 267]
rule not met
